molecular target: T1, hVISTA-ECD 6-His tag (human, UniProt Q9H7M9 33-193); experiment: SPR, Ab on Protein A, hVISTA analyte, pH 6.45
T1 construct: also called monovalent hVISTA-ECD; human VISTA
T1 sequence (Q9H7M9 other isoform, or with tags, fused parts or gaps limits assumed): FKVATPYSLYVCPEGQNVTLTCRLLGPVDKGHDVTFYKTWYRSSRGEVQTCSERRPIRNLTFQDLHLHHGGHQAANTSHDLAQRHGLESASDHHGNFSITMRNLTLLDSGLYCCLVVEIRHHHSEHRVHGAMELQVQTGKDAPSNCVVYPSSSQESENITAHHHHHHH
Collected Kd values appear next to each entry.
Kindly provide the numeric value in nM only, without the unit symbol.

INSERT INTO assay_data (binder, measured_attribute, experimental_result) VALUES
  ('P1-068744 (antibody, human IgG1, kappa, V domains shown, also called P1-068744-7) VH: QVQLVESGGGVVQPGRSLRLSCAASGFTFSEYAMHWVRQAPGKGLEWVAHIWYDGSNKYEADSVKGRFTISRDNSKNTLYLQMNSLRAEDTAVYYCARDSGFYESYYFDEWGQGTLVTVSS VL: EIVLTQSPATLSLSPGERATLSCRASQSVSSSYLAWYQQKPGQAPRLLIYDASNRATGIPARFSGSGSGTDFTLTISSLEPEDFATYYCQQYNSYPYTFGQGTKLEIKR', 'Kd', 64);

[Q] Using the record for P1-068748 (antibody, human IgG1, kappa, V domains shown, also called P1-068748-6) VH: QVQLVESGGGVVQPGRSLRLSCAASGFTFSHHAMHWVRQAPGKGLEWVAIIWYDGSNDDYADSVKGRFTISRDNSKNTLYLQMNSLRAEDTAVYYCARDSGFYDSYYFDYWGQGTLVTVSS VL: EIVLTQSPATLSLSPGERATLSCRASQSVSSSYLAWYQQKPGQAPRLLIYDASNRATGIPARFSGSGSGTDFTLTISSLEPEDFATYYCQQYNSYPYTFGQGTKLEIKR , report its Kd.
[A] 18

[Q] Requested field: Kd. Item: P1-070976 (41F11_VH_T28P_Y50W_S55E_D95H_L96E_P97E_Y100E; Vk_A64G) (antibody, V domains shown, They look like Kabat positions on the mature VH, but no numbering scheme is stated; also called P1-070976-11) VH: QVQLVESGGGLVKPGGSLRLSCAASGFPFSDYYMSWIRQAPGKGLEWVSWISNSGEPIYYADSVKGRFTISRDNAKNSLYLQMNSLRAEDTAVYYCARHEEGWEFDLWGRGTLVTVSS VL: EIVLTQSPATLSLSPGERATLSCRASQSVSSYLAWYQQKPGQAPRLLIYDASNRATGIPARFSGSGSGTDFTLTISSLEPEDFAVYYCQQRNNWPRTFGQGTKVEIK
[A] 44

[Q] # input binder: P1-061520 (41F11 VK_A64G) (antibody, V domains shown, also called P1-061520-21; VISTA.4.A64G) VH: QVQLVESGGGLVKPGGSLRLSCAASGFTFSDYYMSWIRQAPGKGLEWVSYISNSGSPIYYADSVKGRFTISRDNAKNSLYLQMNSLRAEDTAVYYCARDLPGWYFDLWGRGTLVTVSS VL: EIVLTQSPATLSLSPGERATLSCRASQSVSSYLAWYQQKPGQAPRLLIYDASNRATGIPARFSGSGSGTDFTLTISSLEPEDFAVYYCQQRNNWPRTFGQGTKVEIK ; wanted: its Kd
[A] 5.69
